Measured CYP enzyme activity, listed per entry for reference.
# TARGET UNDER TEST: CYP3A4 (UniProt P08684)
# Sequence (P08684 whole entry): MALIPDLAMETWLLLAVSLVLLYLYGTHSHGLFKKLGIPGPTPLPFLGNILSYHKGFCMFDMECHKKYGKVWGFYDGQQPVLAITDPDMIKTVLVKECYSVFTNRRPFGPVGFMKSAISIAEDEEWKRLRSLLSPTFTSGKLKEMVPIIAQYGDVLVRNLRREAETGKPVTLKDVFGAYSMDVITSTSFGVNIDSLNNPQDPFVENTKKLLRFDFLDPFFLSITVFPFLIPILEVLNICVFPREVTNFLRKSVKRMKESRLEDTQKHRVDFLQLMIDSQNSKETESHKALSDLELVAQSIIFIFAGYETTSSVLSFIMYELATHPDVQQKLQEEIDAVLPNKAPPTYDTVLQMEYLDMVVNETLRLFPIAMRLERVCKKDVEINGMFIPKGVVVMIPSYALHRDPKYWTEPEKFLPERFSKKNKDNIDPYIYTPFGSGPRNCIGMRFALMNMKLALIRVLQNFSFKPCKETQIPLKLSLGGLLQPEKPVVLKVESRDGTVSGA
# ASSAY METHOD TEXT: CYP enzyme activity (probe substrate metabolite formation) fold change vs solvent control; higher = stronger induction of CYP activity
# CONDITION CONTEXT: 5 µM; treatment time 48 h; HepaRG
# respond with the number and nothing more

Here's what some known entries look like.
>  <COMPOUND>
c1ccc2c(c1)ccc1ccccc12

>  <CYP enzyme activity>
1.1

$$$$
>  <COMPOUND>
c1ccc2cc3c(ccc4ccccc43)cc2c1 [benzo[a]anthracene]

>  <CYP enzyme activity>
0.754

$$$$
>  <COMPOUND>
c1ccc2c(c1)-c1cccc3cccc-2c13

>  <CYP enzyme activity>
1.28

$$$$
>  <COMPOUND>
c1ccc2c(c1)cc1ccc3cccc4ccc2c1c34 [benzo[a]pyrene]

>  <CYP enzyme activity>
0.678

$$$$
>  <COMPOUND>
c1ccc2c(c1)cc1ccc3cccc4c5ccccc5c2c1c34 [dibenzo[a,l]pyrene]

>  <CYP enzyme activity>
0.385

$$$$

Prompt: Name the recorded CYP enzyme activity for c1ccc2cc3c(cc2c1)-c1cccc2cccc-3c12 [benzo[k]fluoranthene] .
Completion: 0.342

Prompt: Name the recorded CYP enzyme activity for c1ccc2c(c1)ccc1ccc3ccccc3c12 [benzo[c]phenanthrene] .
Completion: 1.13

Prompt: Name the recorded CYP enzyme activity for `c1cc2ccc3cccc4ccc(c1)c2c34` .
Completion: 1.07

Prompt: Name the recorded CYP enzyme activity for c1ccc2c(c1)-c1cccc3c1c-2cc1ccccc13 [benzo[b]fluoranthene] .
Completion: 0.732

Prompt: Name the recorded CYP enzyme activity for c1ccc2c3c(ccc2c1)-c1cccc2cccc-3c12 [benzo[j]fluoranthene] .
Completion: 0.694
